Assay: Probe fluorescence ratio response to arachidonic acid relative to ADIFAB2
Format: binding
Conditions: Table 3; Arachidonic acid
ASSAY READOUT: DR/DRAD2 AA
Kindly provide the number alone.

(Q) # get_value(readout='DR/DRAD2 AA', item= L72G: FABP probe clone, substitution L72G vs SEQ ID NO: 2 (protein, listed as Rattus norvegicus, PEPTIDE (1)...(131) wild-type rat intestinal fatty acid binding protein) AFDGTWKVDRNENYEKFMEKMGINVVKRKLGAHDNLKLTITQEGNKFTVKESSNFRNIDVVFELGVDFAYSGADGTELTGTWTMEGNKLVGKFKRVDNGKELIAVREISGNELIQTYTYEGVEAKRIFKKE )
(A) 0.62

Where these numbers come from: patent US20060257938A1
